Biological target: human orexin type 2 receptor (Homo sapiens, UniProt O43614)
Construct: expressed in transfected cells
Sequence (O43614 1-444): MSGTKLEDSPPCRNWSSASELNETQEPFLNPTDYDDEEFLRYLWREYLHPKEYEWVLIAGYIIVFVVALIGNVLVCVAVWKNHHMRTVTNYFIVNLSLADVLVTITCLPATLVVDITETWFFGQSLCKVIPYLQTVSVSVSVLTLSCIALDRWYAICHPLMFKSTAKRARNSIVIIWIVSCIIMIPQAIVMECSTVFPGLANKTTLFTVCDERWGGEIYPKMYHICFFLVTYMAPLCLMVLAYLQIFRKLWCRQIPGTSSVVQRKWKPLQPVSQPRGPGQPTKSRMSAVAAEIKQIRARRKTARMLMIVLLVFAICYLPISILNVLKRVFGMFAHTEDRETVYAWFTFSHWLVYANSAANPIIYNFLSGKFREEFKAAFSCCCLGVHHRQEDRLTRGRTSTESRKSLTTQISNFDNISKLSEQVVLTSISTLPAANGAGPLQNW
Assay: Measurement of orexin type 2 receptor agonist activity (calcium indicator fluorescence, CHO cells forcibly expressing human OX2 receptor)
Assay type: cell-based
Settings: compound at 3 μM; 0% = DMSO, 100% = orexin A (human) 10 nM
MEASURED_ENDPOINT: OX2R agonist activity (3 μM, %)

CCS(=O)(=O)N[C@H]1[C@@H](F)CN(C(=O)N(C)C)[C@H]1Cc1cccc(-c2cccc(F)c2)c1F [Example 210]; 95
O=C(C1CCO1)N1C[C@H](F)[C@H](NS(=O)(=O)C2CC2)[C@@H]1Cc1cccc(-c2cccc(F)c2F)c1F (stereo partly shown) [Example 480]; 101
CS(=O)(=O)N[C@@H]1[C@H](Cc2cccc(-c3cccc(Cl)c3)c2F)N(C(=O)C2CC2)CC1(F)F [Example 250]; 96
CCS(=O)(=O)N[C@@H]1[C@H](Cc2cccc(-c3cc(F)cc(F)c3)c2)N(C(=O)C(C)C)CC1(F)F [Example 116]; 86
O=C(C1CC1)N1C[C@H](F)[C@H](NS(=O)(=O)C2CC2)[C@@H]1Cc1cccc(-c2cc(F)cc(F)c2)c1F [Example 373]; 88
CS(=O)(=O)N[C@@H]1[C@H](Cc2cccc(-c3ccccc3)c2F)N(C(=O)C2CC(F)C2)CC1(F)F (stereo partly shown) [Example 440]; 94
Cc1cc(F)cc(-c2cccc(C[C@H]3[C@@H](NS(=O)(=O)N(C)C)C(F)(F)CN3C(=O)[C@H]3CCO3)c2F)c1 [Example 540]; 100

* * *

Target: human orexin type 2 receptor (Homo sapiens, UniProt O43614)
Construct: expressed in transfected cells
Sequence (O43614 1-444): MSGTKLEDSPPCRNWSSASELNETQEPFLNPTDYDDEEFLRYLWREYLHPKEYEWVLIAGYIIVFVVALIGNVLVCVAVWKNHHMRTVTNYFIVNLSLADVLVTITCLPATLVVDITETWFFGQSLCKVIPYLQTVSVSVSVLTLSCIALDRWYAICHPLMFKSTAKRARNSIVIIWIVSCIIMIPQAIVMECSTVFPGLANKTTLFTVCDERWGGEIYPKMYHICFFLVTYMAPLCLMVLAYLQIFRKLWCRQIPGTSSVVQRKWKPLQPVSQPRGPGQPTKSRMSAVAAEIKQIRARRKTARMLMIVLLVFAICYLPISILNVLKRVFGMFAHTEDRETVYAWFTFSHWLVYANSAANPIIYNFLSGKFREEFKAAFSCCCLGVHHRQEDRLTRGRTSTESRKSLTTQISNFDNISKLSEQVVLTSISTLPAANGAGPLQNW
Experiment: Measurement of orexin type 2 receptor agonist activity (calcium indicator fluorescence, CHO cells forcibly expressing human OX2 receptor)
Assay type: cell-based
Details: compound at 3 μM; 0% = DMSO, 100% = orexin A (human) 10 nM
// OX2R agonist activity (3 μM, %) lookup, one value per entry
MEASURED_ENDPOINT: OX2R agonist activity (3 μM, %)

CCS(=O)(=O)N[C@@H]1[C@H](Cc2cccc(-c3cccc(C(F)F)c3)c2F)N(C(=O)C(C)C)CC1(F)F [Example 507]; 97
Cc1cc(F)cc(-c2cccc(C[C@H]3[C@@H](NS(=O)(=O)N(C)C)C(F)(F)CN3C(=O)N3CCC3)c2F)c1 [Example 546]; 96
CCS(=O)(=O)N[C@H]1[C@@H](F)CN(C(=O)C(C)(C)O)[C@H]1Cc1cccc(-c2cccc(F)c2)c1F [Example 207]; 88
CCS(=O)(=O)N[C@@H]1[C@H](Cc2cccc(-c3cccc(F)c3F)c2F)N(C(=O)C(C)(C)O)CC1(F)F [Example 66]; 104
CC(C)C(=O)N1CC(F)(F)[C@H](NS(C)(=O)=O)[C@@H]1Cc1cccc(-c2cccc(F)c2)c1F [Example 98]; 91
Cc1cc(F)cc(-c2cccc(C[C@H]3[C@@H](NS(=O)(=O)N(C)C)C(F)(F)CN3C(=O)N(C)C)c2F)c1 [Example 526]; 83
CCS(=O)(=O)N[C@@H]1[C@H](Cc2cccc(-c3cc(F)c(F)c(F)c3)c2F)N(C(=O)C2CCO2)CC1(F)F (some centres unmarked) [Example 475]; 100
Cc1cccc(-c2cccc(C[C@H]3[C@@H](NS(=O)(=O)C4CC4)C(F)(F)CN3C(=O)C3(O)CCC3)c2F)c1 [Example 430]; 96
CCS(=O)(=O)N[C@@H]1[C@H](Cc2cccc(-c3cc(F)ccc3F)c2F)N(C(=O)C(C)C)CC1(F)F [Example 147]; 91
CCS(=O)(=O)N[C@@H]1[C@H](Cc2cccc(-c3cccc(F)c3)c2)N(C(=O)C2CCO2)CC1(F)F (some centres unmarked) [Example 52]; 100
Cc1cccc(-c2cccc(C[C@H]3[C@@H](NS(=O)(=O)N(C)C)C(F)(F)CN3C(=O)C3CCO3)c2F)c1 (some centres unmarked) [Example 432]; 95
CN(C)S(=O)(=O)N[C@@H]1[C@H](Cc2cccc(-c3cccc(F)c3)c2F)N(C(=O)[C@H]2CCO2)CC1(F)F [Example 541]; 100
CCS(=O)(=O)N[C@@H]1[C@H](Cc2cccc(-c3ccccc3)c2F)N(C(=O)C2CCO2)CC1(F)F (some centres unmarked) [Example 46]; 102
CCS(=O)(=O)N[C@@H]1[C@H](Cc2cccc(-c3cc(F)cc(Cl)c3)c2F)N(C(=O)C2CC2)CC1(F)F [Example 248]; 90

* * *

Target: human orexin type 2 receptor (Homo sapiens, UniProt O43614)
Construct: expressed in transfected cells
Sequence (O43614 1-444): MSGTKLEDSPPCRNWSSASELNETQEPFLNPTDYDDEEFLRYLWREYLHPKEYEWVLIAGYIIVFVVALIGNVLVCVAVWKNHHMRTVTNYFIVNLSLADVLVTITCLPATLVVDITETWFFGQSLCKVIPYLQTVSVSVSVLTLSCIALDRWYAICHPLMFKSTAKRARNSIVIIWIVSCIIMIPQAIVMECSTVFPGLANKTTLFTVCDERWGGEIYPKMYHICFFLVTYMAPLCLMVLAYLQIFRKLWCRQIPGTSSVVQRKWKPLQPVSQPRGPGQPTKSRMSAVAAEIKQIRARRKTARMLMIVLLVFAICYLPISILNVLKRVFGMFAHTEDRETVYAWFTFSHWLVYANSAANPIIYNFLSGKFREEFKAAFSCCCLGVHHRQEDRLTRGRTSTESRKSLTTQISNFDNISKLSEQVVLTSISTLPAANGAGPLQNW
Assay: Measurement of orexin type 2 receptor agonist activity (calcium indicator fluorescence, CHO cells forcibly expressing human OX2 receptor)
Format: cell-based
Settings: compound at 3 μM; 0% = DMSO, 100% = orexin A (human) 10 nM
// OX2R agonist activity (3 μM, %) lookup, one value per entry
MEASURED_ENDPOINT: OX2R agonist activity (3 μM, %)

O=C(C1CCO1)N1C[C@H](F)[C@H](NS(=O)(=O)C2CC2)[C@@H]1Cc1cccc(-c2cccc(Cl)c2)c1F (some centres unmarked) [Example 497]; 91
CS(=O)(=O)N[C@@H]1[C@H](Cc2cccc(-c3ccccc3)c2F)N(C(=O)[C@H]2CCCO2)CC1(F)F; 104
CCS(=O)(=O)N[C@H]1[C@@H](F)CN(C(=O)C2CCO2)[C@H]1Cc1cccc(-c2cccc(Cl)c2F)c1F (some centres unmarked); 90
CCS(=O)(=O)N[C@@H]1[C@H](Cc2cccc(-c3cccc(C(F)F)c3)c2F)N(C(=O)C2CC(F)C2)CC1(F)F (some centres unmarked) [Example 505]; 88
CCS(=O)(=O)N[C@H]1[C@@H](F)CN(C(=O)N(C)C)[C@H]1Cc1cccc(-c2cccc(C)c2F)c1F; 88
CCS(=O)(=O)N[C@H]1[C@@H](F)CN(C(=O)C(C)(C)O)[C@H]1Cc1cccc(-c2cccc(F)c2F)c1F; 97
CCS(=O)(=O)N[C@H]1[C@@H](F)CN(C(=O)C2CC2)[C@H]1Cc1cccc(-c2cccc(F)c2)c1F; 96
CCS(=O)(=O)N[C@@H]1[C@H](Cc2cccc(-c3cccc(Cl)c3)c2F)N(C(=O)C(C)(C)O)CC1(F)F; 106
Cc1cccc(-c2cccc(C[C@H]3[C@@H](NS(=O)(=O)N(C)C)C(F)(F)CN3C(=O)N3CCC3)c2F)c1F; 93
CS(=O)(=O)N[C@@H]1[C@H](Cc2cccc(-c3cccc(F)c3)c2F)N(C(=O)C2CC(F)C2)CC1(F)F (some centres unmarked) [Example 392]; 97
CCS(=O)(=O)N[C@@H]1[C@H](Cc2cccc(-c3cccc(C(F)F)c3)c2F)N(C(=O)C2CC(F)C2)CC1(F)F (some centres unmarked) [Example 506]; 100
CN(C)S(=O)(=O)N[C@@H]1[C@H](Cc2cccc(-c3cc(F)cc(F)c3)c2F)N(C(=O)[C@H]2CCO2)CC1(F)F; 100
CC(C)(O)C(=O)N1C[C@H](F)[C@H](NS(C)(=O)=O)[C@@H]1Cc1cccc(-c2cccc(Cl)c2)c1F; 89
CC(C)(O)C(=O)N1C[C@H](F)[C@H](NS(=O)(=O)C2CC2)[C@@H]1Cc1cccc(-c2cc(F)cc(F)c2)c1F; 91

meta.source: patent US20230040770A1
